A set of molecules tested on PDE10A enzyme (Homo sapiens (Human), UniProt Q9Y233), with measured IC50:
Give just the number in nM; leave the unit off.

## Input Field request: IC50 | item: "Cc1ncc(C)n2nc(CCc3cn(C)c(-c4cncs4)n3)nc12"
## Output 22

## Input Would you mind doing "Cc1ncc(C)n2nc(CCc3cn(C)c(-c4cscn4)n3)nc12" as well?
## Output 11

## Input Would you mind doing "CCc1ccc(C)n2nc(CCc3cn(C)c(-c4ccccc4)n3)nc12" as well?
## Output 23

## Input Would you mind doing "Cc1ncc(C)n2nc(CCc3cn(C)c(-c4ccco4)n3)nc12" as well?
## Output 1.1

## Input Would you mind doing "Cc1ncc(C)n2nc(CCc3c[nH]c(-c4cccs4)n3)nc12" as well?
## Output 0.4

## Input Would you mind doing "COc1ccc(C)n2nc(CCc3c[nH]c(-c4ccccc4)n3)nc12" as well?
## Output 5.9

## Input Would you mind doing "Cc1ccc(C)n2nc(CCc3c[nH]c(-c4cscn4)n3)nc12" as well?
## Output 3.5
